Data provenance: patent US8242151B2

target: GAL4-PPARγ chimeric nuclear receptor (human PPARγ ligand binding region) (Homo sapiens); experiment: Transactivation assay of PPARγ by transient gene transfer (GAL4-PPARγ luciferase reporter); conditions: HEK293EBNA cells, 24 hr; concentration showing 50% of efficacy; activity relative to pioglitazone 10 μmol/L = 100%
Consider the following compounds; for each one, report its EC50.
Entry rule: numbers only, all in nM.

Task: Identify EC50 associated with the compound CCOc1nc2c(C)cc(C)nc2n1Cc1ccc2c(c1)CCc1ccccc1/C2=C(/C)c1noc(=O)[nH]1
Result: 323

Task: Give the measured EC50 for Cc1cc(C)c2nc(C3CC3)n(Cc3ccc4c(c3)CCc3ccccc3N4C(C)c3noc(=O)[nH]3)c2n1 (stereo not shown)
Result: 53

Task: Note EC50 for the compound shown: Cc1cc(C)c2nc(C3CC3)n(Cc3ccc4c(c3)CCc3ccccc3N4C(C)c3nnn[nH]3)c2n1 (stereo not shown)
Result: 235

Task: Please supply the value of reported EC50 for the item C/C(=C1/c2ccccc2CCc2cc(Cn3c(C4CC4)nc4c(C)ccnc43)ccc21)c1nnn[nH]1
Result: 1020

Task: Output measured EC50 for this item: CCCc1nc2c(C)cccc2n1Cc1ccc2c(c1)CCc1ccccc1N2Cc1noc(=O)[nH]1
Result: 97

Task: Answer with the recorded EC50 for the compound listed here: CCCc1nc2c(C)cccc2n1Cc1ccc2c(c1)CCc1ccccc1C2Cc1noc(=O)[nH]1 (stereo not shown)
Result: 73

Task: Given CCCc1nc2c(C)cccc2n1Cc1ccc2c(c1)CCc1ccccc1/C2=C\c1noc(=O)[nH]1 , respond with its EC50.
Result: 103

====

Please provide measured log10 EC50 for the entries that follow.
Biological target: GAL4-PPARγ chimeric nuclear receptor (human PPARγ ligand binding region) (Homo sapiens, UniProt P37231)
Sequence (P37231 174-475 isoform P37231-2): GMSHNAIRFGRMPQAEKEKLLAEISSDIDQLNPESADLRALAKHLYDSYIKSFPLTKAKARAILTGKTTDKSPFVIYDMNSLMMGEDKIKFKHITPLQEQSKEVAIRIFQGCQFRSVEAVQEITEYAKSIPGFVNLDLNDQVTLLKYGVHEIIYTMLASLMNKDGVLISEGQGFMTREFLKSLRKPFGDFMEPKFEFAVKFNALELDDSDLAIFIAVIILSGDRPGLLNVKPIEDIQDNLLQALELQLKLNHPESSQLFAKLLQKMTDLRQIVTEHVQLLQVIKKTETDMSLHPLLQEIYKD
Test: Transactivation assay of PPARγ by transient gene transfer (GAL4-PPARγ luciferase reporter)
Settings: HEK293EBNA cells, 24 hr; concentration showing 50% of efficacy; activity relative to pioglitazone 10 μmol/L = 100%
The figures below represent log10 of EC50, where EC50 is stated in nM.

Task: Consider the compound CCc1nc2c(C)cc(C)nc2n1Cc1ccc2c(c1)CCc1ccccc1C2=CC#N and give its recorded log10 EC50.
Result: 3.10

Task: For the compound CCOc1nc2cccnc2n1Cc1ccc2c(c1)CCc1ccccc1/C2=C(/C)c1noc(=O)[nH]1 , report log10 EC50.
Result: 3.18

Task: Identify the reported log10 EC50 for the following entry. CCc1nc2c(C)cc(C)nc2n1Cc1ccc2c(c1)CCc1ccccc1N2C(C)c1nnn[nH]1 (stereo not drawn)
Result: 3.00

Task: Give log10 EC50 for the following compound: C/C(=C1/c2ccccc2COc2cc(Cn3c(C4CC4)nc4c(C)cc(C)nc43)ccc21)c1noc(=O)[nH]1
Result: 3.05

Task: Fill in reported log10 EC50 for this entry: CCc1nc2c(C)cc(C)nc2n1Cc1ccc2c(c1)CCc1ccccc1/C2=C\c1noc(=O)[nH]1
Result: 2.51

Task: Return log10 EC50 (reported value) for this compound: CCc1nc2c(C)cc(C)nc2n1Cc1ccc2c(c1)CCc1ccccc1/C2=C\c1nnn[nH]1
Result: 2.48

Task: # return recorded log10 EC50 for entry C/C(=C1/c2ccccc2CCc2cc(Cn3c(C4CC4)nc4c(Cl)ccnc43)ccc21)c1noc(=O)[nH]1
Result: 2.72

Task: Return log10 EC50 (reported value) for this compound: CCc1nc2c(C)ccnc2n1Cc1ccc2c(c1)CCc1ccccc1/C2=C(/C)c1nnn[nH]1
Result: 3.29

Task: Please report the measured log10 EC50 for Cc1cc(C)c2nc(C3CC3)n(Cc3ccc4c(c3)CCc3ccccc3N4Cc3nnn[nH]3)c2n1
Result: 3.62

Task: Give me measured log10 EC50, please, for this compound: CCCc1nc2c(C)cccc2n1Cc1ccc2c(c1)CCc1ccccc1/C2=C(/C)c1noc(=O)[nH]1
Result: 2.53

Task: Recall and state the measured log10 EC50 for CCOc1nc2c(C)cc(C)nc2n1Cc1ccc2c(c1)COc1ccccc1/C2=C\c1noc(=O)[nH]1 .
Result: 2.51

Task: For the compound CCCc1nc2c(C)cccc2n1Cc1ccc2c(c1)CCc1ccccc1/C2=C/c1noc(=O)[nH]1 , report log10 EC50.
Result: 1.97

Task: For the compound CCc1nc2c(C)cc(C)nc2n1Cc1ccc2c(c1)CCc1ccccc1/C2=C(/C)c1nnn[nH]1 , give its reported log10 EC50.
Result: 3.04

Task: Supply reported log10 EC50 belonging to this compound: CCc1nc2c(Cl)cc(C)nc2n1Cc1ccc2c(c1)COc1ccccc1/C2=C(/C)c1noc(=O)[nH]1
Result: 2.79

Task: Quick one: give measured log10 EC50 for CCc1nc2c(Cl)cc(C)nc2n1Cc1ccc2c(c1)OCc1ccccc1/C2=C\c1noc(=O)[nH]1
Result: 2.49

Task: Complete the entry with log10 EC50 for CCc1nc2c(Cl)cc(C)nc2n1Cc1ccc2c(c1)CCc1ccccc1/C2=C(/C)c1noc(=O)[nH]1
Result: 2.89

Task: Please give measured log10 EC50 of the following entry: CCOc1nc2c(Cl)ccnc2n1Cc1ccc2c(c1)COc1ccccc1/C2=C(/C)c1noc(=O)[nH]1
Result: 2.74

Task: Identify the reported log10 EC50 for the following entry. CCc1nc2c(C)cc(C)nc2n1Cc1ccc2c(c1)CCc1ccccc1/C2=C(\C)c1nn[nH]n1
Result: 2.40

Task: Return log10 EC50 (reported value) for this compound: CCc1nc2c(C)ccnc2n1Cc1ccc2c(c1)CCc1ccccc1/C2=C(/C)c1noc(=O)[nH]1
Result: 3.01

Task: Name the recorded log10 EC50 of the compound listed here: CCc1nc2c(C)cc(C)nc2n1Cc1ccc2c(c1)CCc1ccccc1/C2=C/c1nnn[nH]1
Result: 3.11

Task: Quickly give me recorded log10 EC50 for CCc1nc2c(Cl)ccnc2n1Cc1ccc2c(c1)COc1ccccc1/C2=C(/C)c1noc(=O)[nH]1
Result: 3.26

Task: Look up and state reported log10 EC50 for CCCc1nc2c(C(F)(F)F)cc(C)nc2n1Cc1ccc2c(c1)CCc1ccccc1/C2=C/c1noc(=O)[nH]1
Result: 2.64

Task: Could you please provide reported log10 EC50 for CCc1nc2c(Cl)cc(C)nc2n1Cc1ccc2c(c1)CCc1ccccc1N2C(C)c1nnn[nH]1 (stereo not drawn) ? Thanks!
Result: 2.37

Task: Supply recorded log10 EC50 for CCc1nc2c(C(F)(F)F)cc(C)nc2n1Cc1ccc2c(c1)CCc1ccccc1/C2=C\c1noc(=O)[nH]1 here.
Result: 2.62
